target: EPHB1 (UniProt P54762); test: phosphorylation enrichment, bacterial display (enrichment ratio); higher = better substrate or ligand; peptides without Tyr show the background;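 note: 11-residue human phosphosite peptides and single-mutation variants displayed on the E. coli surface, counted by deep sequencing, each peptide's frequency after selection divided by its frequency in the unselected input library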;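 note: frequency after pTyr selection over input frequency; kinase dosed for 20-30% of maximal phosphorylation in three min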
Sequence (P54762 whole entry, looked up): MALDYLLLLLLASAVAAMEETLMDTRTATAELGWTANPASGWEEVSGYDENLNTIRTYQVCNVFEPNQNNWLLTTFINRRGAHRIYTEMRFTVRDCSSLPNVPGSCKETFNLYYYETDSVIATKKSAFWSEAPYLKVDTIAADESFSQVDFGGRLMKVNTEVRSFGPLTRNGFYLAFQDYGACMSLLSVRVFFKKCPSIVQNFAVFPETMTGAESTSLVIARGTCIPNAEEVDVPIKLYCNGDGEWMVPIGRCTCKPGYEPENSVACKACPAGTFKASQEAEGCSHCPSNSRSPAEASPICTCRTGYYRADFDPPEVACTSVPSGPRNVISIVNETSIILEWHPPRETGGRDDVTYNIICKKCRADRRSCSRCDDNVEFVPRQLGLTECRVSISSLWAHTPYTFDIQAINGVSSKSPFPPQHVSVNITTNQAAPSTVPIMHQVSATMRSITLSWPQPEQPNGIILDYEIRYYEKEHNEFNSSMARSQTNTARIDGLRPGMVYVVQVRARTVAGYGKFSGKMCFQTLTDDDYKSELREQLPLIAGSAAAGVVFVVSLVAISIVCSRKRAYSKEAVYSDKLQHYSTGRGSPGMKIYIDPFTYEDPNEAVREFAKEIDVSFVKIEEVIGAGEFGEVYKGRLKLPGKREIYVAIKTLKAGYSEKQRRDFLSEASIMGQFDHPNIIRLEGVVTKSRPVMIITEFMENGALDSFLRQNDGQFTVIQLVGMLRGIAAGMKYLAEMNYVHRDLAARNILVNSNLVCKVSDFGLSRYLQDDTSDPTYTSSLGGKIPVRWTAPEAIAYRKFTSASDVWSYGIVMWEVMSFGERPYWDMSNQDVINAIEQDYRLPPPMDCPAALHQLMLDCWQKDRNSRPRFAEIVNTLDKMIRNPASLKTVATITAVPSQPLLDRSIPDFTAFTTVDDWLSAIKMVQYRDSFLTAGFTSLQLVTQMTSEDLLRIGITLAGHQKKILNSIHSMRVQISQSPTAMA
phosphorylation enrichment: recorded values

Past entries and their recorded results:
FPPDGYSRHCE [CTNND1_Y213_Y217C_YF] ... 0.565
HHTNEYEYDEL [TGM1_Y134_D132N] ... 0.497
FGMSTYITRED [FNDC3B_Y180_YF] ... 0.776

Query: # get_value(readout='phosphorylation enrichment', item= LARDMYDKEYY [MET_Y1230] )
Response: 0.815

Query: Now try YQQLFYLLQIN [IQGAP2_Y890_T894I] .
Response: 1.21

Query: Now try GGSDRYGSLRP [MYLK_Y846] .
Response: 0.385

Query: Now try ANNPLYKEVTS [ITGB3_Y773_A776V] .
Response: 0.506
